Assay: Cytotoxicity against human hepatoma cells assessed as decrease in GADPH RNA level after 3 days by Rt-PCR analysis
Format: cell-based
Doc: threshold 20 µM (exclusive). Items with CC50 at 72 h beneath it return yes; others return no.

Cc1nc(N[C@H](C)c2ccc(F)cc2)nc(N[C@@H]2C[C@H](CO)[C@@H](O)[C@H]2O)c1-c1nc2cnccc2s1 :: no
Cc1nc(N[C@H](C)c2ccc(-c3cnn(C)c3)cc2)nc(N[C@@H]2C[C@H](CO)[C@@H](O)[C@H]2O)c1-c1nc2cnccc2s1 :: no
Cc1nc(N[C@H](C)c2ccc(OC(F)(F)F)cc2)nc(N[C@@H]2C[C@H](CO)[C@@H](O)[C@H]2O)c1-c1nc2c(CCC#N)nccc2s1 :: yes
Cc1nc(NCC2CC2)nc(N[C@@H]2C[C@H](CO)[C@@H](O)[C@H]2O)c1-c1nc2cnccc2s1 :: yes
Cc1nc(N(C)Cc2ccccc2)nc(N[C@@H]2C[C@H](CO)[C@@H](O)[C@H]2O)c1-c1nc2cnccc2s1 :: no
Cc1nc(N[C@H](C)c2ccc(OC(F)(F)F)cc2)nc(N[C@@H]2C[C@H](CO)[C@@H](O)[C@H]2O)c1-c1nc2c(C3CCC3)nccc2s1 :: yes
CCCc1nccc2sc(-c3c(C)nc(N[C@H](C)c4ccc(OC(F)(F)F)cc4)nc3N[C@@H]3C[C@H](CO)[C@@H](O)[C@H]3O)nc12 :: yes
CNc1nc(C)c(-c2nc3cnccc3s2)c(N[C@@H]2C[C@H](CO)[C@@H](O)[C@H]2O)n1 :: yes
Cc1nc(N[C@H](C)c2ccccc2OC(F)(F)F)nc(N[C@@H]2C[C@H](CO)[C@@H](O)[C@H]2O)c1-c1nc2cnccc2s1 :: no
Cc1cc2sc(-c3c(C)nc(N[C@H](C)c4ccc(OC(F)(F)F)cc4)nc3N[C@@H]3C[C@H](CO)[C@@H](O)[C@H]3O)nc2c(C2CC2)n1 :: no
CCc1cc2sc(-c3c(C)nc(N[C@H](C)c4ccc(OC(F)(F)F)cc4)nc3N[C@@H]3C[C@H](CO)[C@@H](O)[C@H]3O)nc2c(CC)n1 :: yes
Cc1nc(NC(C)(C)c2ccccc2)nc(N[C@@H]2C[C@H](CO)[C@@H](O)[C@H]2O)c1-c1nc2cnccc2s1 :: no
Cc1nc(NCc2ccc(OC(F)(F)F)cc2)nc(N[C@@H]2C[C@H](CO)[C@@H](O)[C@H]2O)c1-c1nc2cnccc2s1 :: no
Cc1nc(N[C@H](C)c2ccc(OC(F)(F)F)cc2)nc(N[C@@H]2C[C@H](CO)[C@@H](O)[C@H]2O)c1-c1nc2c(CC(C)(C)C)nccc2s1 :: yes

###

Experiment: Cytotoxicity against human hepatoma cells after 3 days by MTS assay
Type: cell-based
Listed next: entries and their corresponding CC50 at 72 h.
READOUT_LABEL: CC50 at 72 h (µM)

Cc1nc(NCc2ccc(OC(F)(F)F)cc2)nc(N[C@@H]2C[C@H](CO)[C@@H](O)[C@H]2O)c1-c1nc2cnccc2s1 :: 25
Cc1cc2sc(-c3c(C)nc(N[C@H](C)c4ccc(OC(F)(F)F)cc4)nc3N[C@@H]3C[C@H](CO)[C@@H](O)[C@H]3O)nc2c(C)n1 :: 12
Cc1nc(NCC2CC2)nc(N[C@@H]2C[C@H](CO)[C@@H](O)[C@H]2O)c1-c1nc2cnccc2s1 :: 5
CCc1nccc2sc(-c3c(C)nc(N[C@H](C)c4ccc(OC(F)(F)F)cc4)nc3N[C@@H]3C[C@H](CO)[C@@H](O)[C@H]3O)nc12 :: 7
Cc1nc(N[C@H](C)c2ccc(F)cc2)nc(N[C@@H]2C[C@H](CO)[C@@H](O)[C@H]2O)c1-c1nc2cnccc2s1 :: 25
Cc1nc(N[C@H](C)c2ccc(OC(F)(F)F)cc2)nc(N[C@@H]2C[C@H](CO)[C@@H](O)[C@H]2O)c1-c1nc2c(CC(C)(C)C)nccc2s1 :: 13
CNc1nc(C)c(-c2nc3cnccc3s2)c(N[C@@H]2C[C@H](CO)[C@@H](O)[C@H]2O)n1 :: 20
Cc1cc2sc(-c3c(C)nc(N[C@H](C)c4ccc(OC(F)(F)F)cc4)nc3N[C@@H]3C[C@H](CO)[C@@H](O)[C@H]3O)nc2c(C2CC2)n1 :: 24
Cc1nc(NCc2c(F)cccc2F)nc(N[C@@H]2C[C@H](CO)[C@@H](O)[C@H]2O)c1-c1nc2cnccc2s1 :: 10
